# protocolSummary: Bulk density, tapped density and Carr index
# Assay type: physicochemical
# testSettings: spray-dried amorphous ipatasertib monohydrochloride, rotary wheel atomizer; monohydrochloride
Structures can show the parent of a compound that is named as a salt.
reportedEndpoint: Tapped density (gcm^−3)
Report only the number, with the unit gcm^−3 understood.

Item CC(C)NC[C@@H](C(=O)N1CCN(c2ncnc3c2[C@H](C)C[C@H]3O)CC1)c1ccc(Cl)cc1 [BS1506SA01, ipatasertib monohydrochloride] has what recorded Tapped density?
0.57

Item CC(C)NC[C@@H](C(=O)N1CCN(c2ncnc3c2[C@H](C)C[C@H]3O)CC1)c1ccc(Cl)cc1 [BS1506SA04, ipatasertib monohydrochloride] has what recorded Tapped density?
0.56

Item CC(C)NC[C@@H](C(=O)N1CCN(c2ncnc3c2[C@H](C)C[C@H]3O)CC1)c1ccc(Cl)cc1 [BS1506SA08, ipatasertib monohydrochloride] has what recorded Tapped density?
0.56

---

# protocolSummary: Bulk density, tapped density and Carr index
# Type: physicochemical
# testSettings: spray dried amorphous ipatasertib monohydrochloride powder; monohydrochloride
Structures can show the parent of a compound that is named as a salt.
Below is a list of entries, each paired with its recorded Tapped density value.
Report only the number, with the unit gcm^−3 understood.

// worked examples, Tapped density included
compound: CC(C)NC[C@@H](C(=O)N1CCN(c2ncnc3c2[C@H](C)C[C@H]3O)CC1)c1ccc(Cl)cc1 [Composition 140210412, ipatasertib monohydrochloride]
Tapped density / gcm^−3: 0.60

compound: CC(C)NC[C@@H](C(=O)N1CCN(c2ncnc3c2[C@H](C)C[C@H]3O)CC1)c1ccc(Cl)cc1 [Composition 140910419, ipatasertib monohydrochloride]
Tapped density / gcm^−3: 0.58

Item CC(C)NC[C@@H](C(=O)N1CCN(c2ncnc3c2[C@H](C)C[C@H]3O)CC1)c1ccc(Cl)cc1 [Composition 140110405, ipatasertib monohydrochloride] has what recorded Tapped density?
0.40

Item CC(C)NC[C@@H](C(=O)N1CCN(c2ncnc3c2[C@H](C)C[C@H]3O)CC1)c1ccc(Cl)cc1 [Composition 141210425, ipatasertib monohydrochloride] has what recorded Tapped density?
0.54

Item CC(C)NC[C@@H](C(=O)N1CCN(c2ncnc3c2[C@H](C)C[C@H]3O)CC1)c1ccc(Cl)cc1 [Composition 140910420, ipatasertib monohydrochloride] has what recorded Tapped density?
0.44

---

# protocolSummary: Particle size distribution (d10, d50, d90) by laser diffraction
# Assay type: physicochemical
# testSettings: spray dried amorphous ipatasertib monohydrochloride powder
Counter-ions that a name gives are not always drawn.
reportedEndpoint: Particle size d90
The answer consists of two parts: a number and, after it, its unit.

// worked examples, Particle size d90 included
compound: CC(C)NC[C@@H](C(=O)N1CCN(c2ncnc3c2[C@H](C)C[C@H]3O)CC1)c1ccc(Cl)cc1 [Composition 130810454, ipatasertib monohydrochloride]
Particle size d90: 72 μm
--
compound: CC(C)NC[C@@H](C(=O)N1CCN(c2ncnc3c2[C@H](C)C[C@H]3O)CC1)c1ccc(Cl)cc1 [Composition 140210413, ipatasertib monohydrochloride]
Particle size d90: 56 μm

Item CC(C)NC[C@@H](C(=O)N1CCN(c2ncnc3c2[C@H](C)C[C@H]3O)CC1)c1ccc(Cl)cc1 [Composition 140210414, ipatasertib monohydrochloride] has what recorded Particle size d90?
109 μm

Item CC(C)NC[C@@H](C(=O)N1CCN(c2ncnc3c2[C@H](C)C[C@H]3O)CC1)c1ccc(Cl)cc1 [Composition 140110409, ipatasertib monohydrochloride] has what recorded Particle size d90?
79 μm
